assay: Pharmacokinetic evaluation, oral exposure in rats; format: in vivo; conditions: rat; male Sprague-Dawley rats, single oral dose 10 mg/kg via oral gavage, plasma; read-out: AUC
value type: AUC

INSERT INTO measurements (structure_smiles, value_type, readout_value) VALUES
  ('Cc1cc(N)nc(C)c1CNC(=O)c1cn(Cc2ccc3ncc(Cl)cc3c2)c2cnccc12', 'AUC', '100 to 1000 ng·h/mL'),
  ('Cc1cc(N)nc(C)c1CNC(=O)c1nc(Cc2ccc3ncc(Cl)cc3c2)no1', 'AUC', '100 to 1000 ng·h/mL'),
  ('Cc1cc(N)nc(C)c1CNC(=O)c1ncn(Cc2ccc3ncc(Cl)cc3c2)n1', 'AUC', '< 100 ng·h/mL'),
  ('Cc1cc(N)nc(C)c1CNC(=O)c1cn(Cc2ccc3ncc(Cl)cc3c2)c2ncncc12', 'AUC', '< 100 ng·h/mL'),
  ('Cc1cc(N)nc(C)c1CNC(=O)c1nn(Cc2ccc3ncc(Cl)cc3c2)c2ccc(=O)[nH]c12', 'AUC', '< 100 ng·h/mL'),
  ('Cc1cc(N)nc(C)c1CNC(=O)c1cn(Cc2ccc3ncc(C4CC4)cc3c2)nc1C#N', 'AUC', '100 to 1000 ng·h/mL'),
  ('Cc1cc(N)nc(C)c1CNC(=O)c1nn(Cc2ccc3ncc(Cl)cc3c2)cc1C(F)(F)F', 'AUC', '100 to 1000 ng·h/mL'),
  ('Cc1cc(N)nc(C)c1CNC(=O)c1nnc(Cc2ccc3ncc(Cl)cc3c2)[nH]1', 'AUC', '> 10000 ng·h/mL'),
  ('Cc1cc(N)nc(C)c1CNC(=O)c1cn(Cc2ccc3ncc(Cl)cc3c2)c2ncccc12', 'AUC', '100 to 1000 ng·h/mL'),
  ('Cc1cc(N)nc(C)c1CNC(=O)c1nn(Cc2ccc3ncc(Cl)cc3c2)c2cncc(C#N)c12', 'AUC', '< 100 ng·h/mL'),
  ('Cc1cc(N)nc(C)c1CNC(=O)c1nc(N)n(Cc2ccc3ncc(Cl)cc3c2)n1', 'AUC', '< 100 ng·h/mL'),
  ('Cc1cc(N)nc(C)c1CNC(=O)c1nn(Cc2ccc3ncc(Cl)cc3c2)cc1C#N', 'AUC', '100 to 1000 ng·h/mL'),
  ('Cc1cc(N)nc(C)c1CNC(=O)c1cn(Cc2ccc3ncc(C(F)(F)F)cc3c2)nc1C#N', 'AUC', '100 to 1000 ng·h/mL'),
  ('Cc1cc(N)nc(C)c1CNC(=O)c1cn(Cc2ccc3ncc(Cl)cc3c2)c2nccc(C#N)c12', 'AUC', '100 to 1000 ng·h/mL'),
  ('Cc1cc(N)nc(C)c1CNC(=O)c1nnc(Cc2ccc3ncc(Cl)cc3c2)n1C', 'AUC', '1000 to 10000 ng·h/mL'),
  ('Cc1cc(N)nc(C)c1CNC(=O)c1cn(Cc2ccc3ncc(Cl)cc3c2)nc1C(F)(F)F', 'AUC', '1000 to 10000 ng·h/mL'),
  ('Cc1cnc2ccc(Cn3cc(C(=O)NCc4ccc(N)nc4C)c(C#N)n3)cc2c1', 'AUC', '100 to 1000 ng·h/mL');

====

biological target: human Plasma Kallikrein (Homo sapiens (Human)); assay: In vitro enzyme inhibition of human plasma kallikrein (Pro-Phe-Arg-AMC cleavage); format: biochemical; conditions: human plasma kallikrein, PFR-AMC substrate, 37° C.; read-out: hPK IC50
value type: IC50

INSERT INTO assay_data (structure_smiles, readout_value) VALUES
  ('Cc1cc(N)nc(C)c1CNC(=O)c1cn(C)c(Cc2ccc3ncc(Cl)cc3c2)n1', '> 10000 nM'),
  ('O=C(NCc1cnc2[nH]cc(Cl)c2c1)c1nnc(Cc2ccc3ncc(Cl)cc3c2)o1', '100 to 1000 nM'),
  ('Cc1cc(N)nc(C)c1CNC(=O)c1cn(Cc2cc(S(N)(=O)=O)c3ncc(Cl)cc3c2)nc1C#N', '< 100 nM'),
  ('Cc1cc(N)nc(C)c1CNC(=O)c1cn(Cc2ccc3ncc(Cl)cc3c2)c2ccncc12', '< 100 nM'),
  ('N#Cc1nn(Cc2ccc3ncc(Cl)cc3c2)cc1C(=O)NCc1cc2c(Cl)c[nH]c2cc1F', '100 to 1000 nM'),
  ('Cc1nc(N)ccc1CNC(=O)c1nnc(Cc2ccc3ncc(Cl)cc3c2)[nH]1', '< 100 nM'),
  ('Cc1nc(N)ccc1CNC(=O)c1cn(Cc2ccc3ncc(Cl)cc3c2)nc1C#N', '< 100 nM'),
  ('Cc1cc(N)nc(C)c1CNC(=O)c1ncc(Cc2ccc3ncc(Cl)cc3c2)o1', '< 100 nM');

====

Overview of reported pIC50 across a group of compounds:
target: human Plasma Kallikrein (Homo sapiens (Human), UniProt P03952); assay: In vitro enzyme inhibition of human plasma kallikrein (Pro-Phe-Arg-AMC cleavage); type: biochemical; details: human plasma kallikrein, PFR-AMC substrate, 37° C.; read-out: hPK IC50
Sequence (P03952 391-638 limits assumed): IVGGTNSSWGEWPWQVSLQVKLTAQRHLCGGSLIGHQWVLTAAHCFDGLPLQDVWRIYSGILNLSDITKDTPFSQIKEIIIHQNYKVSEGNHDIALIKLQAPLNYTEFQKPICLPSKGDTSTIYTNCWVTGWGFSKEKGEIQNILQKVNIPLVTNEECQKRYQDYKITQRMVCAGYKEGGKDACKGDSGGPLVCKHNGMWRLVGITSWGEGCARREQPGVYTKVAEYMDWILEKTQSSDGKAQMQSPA
Sequence (P03952 20-390 partner limits assumed): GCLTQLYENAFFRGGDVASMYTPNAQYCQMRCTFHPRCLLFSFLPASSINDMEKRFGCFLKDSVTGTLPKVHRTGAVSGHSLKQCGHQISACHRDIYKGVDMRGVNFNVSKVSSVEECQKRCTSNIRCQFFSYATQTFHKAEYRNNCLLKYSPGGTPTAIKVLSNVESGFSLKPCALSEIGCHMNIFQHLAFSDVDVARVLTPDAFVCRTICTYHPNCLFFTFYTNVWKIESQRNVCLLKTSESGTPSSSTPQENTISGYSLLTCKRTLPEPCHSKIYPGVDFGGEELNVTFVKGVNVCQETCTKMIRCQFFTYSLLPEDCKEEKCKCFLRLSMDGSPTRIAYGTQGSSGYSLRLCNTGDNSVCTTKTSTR
pIC50: −log10 of the molar value.
value type: pIC50

INSERT INTO measurements (structure_smiles, value_type, readout_value) VALUES
  ('Cc1cc(N)nc(C)c1CNC(=O)c1cnn(Cc2cc(F)c3ncc(Cl)cc3c2)c1C(N)=O', 'pIC50', '< 5.00'),
  ('Cc1nc(N)ccc1CNC(=O)c1nn(Cc2ccc3ncc(Cl)cc3c2)c2ccc(=O)[nH]c12', 'pIC50', '> 7.00'),
  ('Cc1cc(N)nc(C)c1CNC(=O)c1cc(C#N)nn1Cc1ccc2ncc(Cl)cc2c1', 'pIC50', '< 5.00'),
  ('Cc1cc(N)nc(C)c1CNC(=O)c1ncc(Cc2ccc3ncc(Cl)cc3c2)[nH]1', 'pIC50', '6.00 to 7.00'),
  ('COc1cc2c(C(=O)NCc3c(C)cc(N)nc3C)cn(Cc3ccc4ncc(Cl)cc4c3)c2cn1', 'pIC50', '> 7.00'),
  ('O=C(NCc1cc2c(Cl)c[nH]c2cc1F)c1nnc(Cc2ccc3ncc(Cl)cc3c2)o1', 'pIC50', '6.00 to 7.00'),
  ('Cc1cc(N)nc(C)c1CNC(=O)c1cn(Cc2ccc3ncc(Cl)cc3c2)c2ccnc(C#N)c12', 'pIC50', '> 7.00'),
  ('Cc1cc(N)nc(C)c1CNC(=O)c1nn(Cc2ccc3ncc(Cl)cc3c2)nc1C#N', 'pIC50', '> 7.00');
